experiment: Kidney PK of CMS/CMS-E2 and formed colistin/colistin B; type: in vivo, rats; details: male, Sprague-Dawley, rat, kidney cortex, ip, 10 mg/kg CBA; SD
Where a SMILES comes first, the peptide text is derived from it. Bridges are numbered along the chain shown (N, C = ends). [ ]: non-standard residue; d: D form. The star is where a group is joined. X1 = CC[C@H](C)CCCCC(=O)*; Dab = NCC[C@H](N)C(=O)O
quantityKind: tissue level at time at 8 h (ng/g)
API: value field is a number in ng/g; no unit string.

**Q:** Quick check: tissue level at time at 8 h of CC[C@H](C)CCCCC(=O)N[C@@H](CCN)C(=O)N[C@H](C(=O)N[C@@H](CCN)C(=O)N[C@H]1CCNC(=O)[C@H]([C@@H](C)O)NC(=O)[C@H](CCN)NC(=O)[C@H](CCN)NC(=O)[C@H](CC(C)C)NC(=O)[C@@H](CC(C)C)NC(=O)[C@H](CCN)NC1=O)[C@@H](C)O [colistin, Colistin] (X1-[Dab]T[Dab][Dab][Dab][dL]L[Dab][Dab]T; lactam 4-C) ?
**A:** 3550

====

assay: Kidney PK of CMS/CMS-E2 and formed colistin/colistin B; assay type: in vivo, rats; settings: male, Sprague-Dawley, rat, kidney (cortex) / plasma, ip, 40 mg/kg CBA, Kidney/plasma ratio of AUC0-inf, colistin/colistin B, rats; single i.p. CMS-E2 40 mg/kg CBA
Where a SMILES comes first, the peptide text is derived from it. Bridges are numbered along the chain shown (N, C = ends). [ ]: non-standard residue; d: D form. The star is where a group is joined. Heptanoyl(6-Me) = CC(C)CCCCC(=O)*; Dab = NCC[C@H](N)C(=O)O
quantityKind: Kp
Lab note: jot the number down without any unit.

**Q:** Quick check: Kp of CC(C)CCCCC(=O)N[C@@H](CCN)C(=O)N[C@H](C(=O)N[C@@H](CCN)C(=O)N[C@H]1CCNC(=O)[C@H]([C@@H](C)O)NC(=O)[C@H](CCN)NC(=O)[C@H](CCN)NC(=O)[C@H](CC(C)C)NC(=O)[C@@H](CC(C)C)NC(=O)[C@H](CCN)NC1=O)[C@@H](C)O [colistin B] ({Heptanoyl(6-Me)}-[Dab]T[Dab][Dab][Dab][dL]L[Dab][Dab]T; lactam 4-C) ?
**A:** 39.6
